Examples of variants with documented protein stability index follow.
B1: SMTNL2 (parent)
chain: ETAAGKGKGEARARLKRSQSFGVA

# Variants of: B1
# TEST_NAME: protein stability index of a GFP-peptide fusion (GPS, HEK-293T) (PSI 1-6); higher = more stable;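 further: lentivirally expressed fusions sorted by FACS into six bins by GFP to DsRed ratio, PSI derived from sequencing read proportions per bin multiplied by bin number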
# COND: c terminus: a fixed tail appended
ASSAY_READOUT: protein stability index

MUTANT | QUANTITATIVE_RESULT
K8T | 4.08
E10S | 4.46
E1Y | 3
G9H | 4.58
A3L | 4.8
K16A | 4
T2F | 4.46
R17W | 2.95
R12A | 4.76
K16Q | 4.21
T2S | 4.66
S18R | 4.26
L15S | 4.76
F21S | 5.07
E1D | 4.49
R17K | 4.6
E10A | 4.33
F21T | 5.16
E10L | 3.79
K6M | 3.87
R12W | 3.14
Q19T | 4.68
